remaining at 0.5 h values, listed per item
Experiment: Metabolic stability of the compound in human liver microsomes assessed as parent compound remaining measured after 30 mins
Assay type: ADME, Microsome
Settings: read-out: Stabilty
# unit: % | format: bare number

Some entries whose results are on file:
Compound: COc1cncc2c1[C@]1(O)[C@@H](CNCc3ccnn3C)[C@H](CO)[C@@H](c3ccccc3)[C@]1(c1ccc(C#N)cc1)O2 (racemic)
Result Units: %
remaining at 0.5 h: 1
//
Compound: COc1cncc2c1[C@]1(O)[C@@H](CN)[C@H](CO)[C@@H](c3ccccc3)[C@]1(c1ccc(C#N)cc1)O2 (racemic)
Result Units: %
remaining at 0.5 h: 95
//
Compound: COc1cncc2c1[C@]1(O)[C@@H](CN)C[C@@H](c3ccccc3)[C@]1(c1ccc(Br)cc1)O2 (racemic)
Result Units: %
remaining at 0.5 h: 99
//
Compound: COc1cncc2c1[C@]1(O)[C@@H](CN)C[C@@H](c3ccccc3)[C@]1(c1ccc(C#N)cc1)O2 (racemic)
Result Units: %
remaining at 0.5 h: 102
//
Compound: COc1cncc2c1[C@]1(O)[C@@H](CN3CC4(COC4)C3)[C@H](CO)[C@@H](c3ccccc3)[C@]1(c1ccc(C#N)cc1)O2 (racemic)
Result Units: %
remaining at 0.5 h: 92

Note remaining at 0.5 h for the compound shown: COc1cncc2c1[C@]1(O)[C@@H](CNCC(F)F)[C@H](CO)[C@@H](c3ccccc3)[C@]1(c1ccc(C#N)cc1)O2 (racemic)
19

Return remaining at 0.5 h for the following compound: COc1cncc2c1[C@]1(O)[C@@H](CN3CCOCC3)[C@H](CO)[C@@H](c3ccccc3)[C@]1(c1ccc(C#N)cc1)O2 (racemic)
51

Consider the compound COc1cncc2c1[C@]1(O)[C@@H](CN(C)C)[C@H](CO)[C@@H](c3ccccc3)[C@]1(c1ccc(C#N)cc1)O2 (racemic) and give its recorded remaining at 0.5 h.
77

Return remaining at 0.5 h (reported value) for this compound: COc1cncc2c1[C@]1(O)[C@@H](CN)[C@H](CO)[C@@H](c3ccccc3)[C@]1(c1ccc(Br)cc1)O2 (racemic)
102

For the compound COc1cncc2c1[C@]1(O)[C@@H](CNC3COC3)[C@H](CO)[C@@H](c3ccccc3)[C@]1(c1ccc(C#N)cc1)O2 (racemic) , give its measured remaining at 0.5 h value.
61

Tell me remaining at 0.5 h reported for COc1cncc2c1[C@]1(O)[C@@H](CN3CCOCC3)[C@H](CO)[C@@H](c3ccccc3)[C@]1(c1ccc(Br)cc1)O2 (racemic)
6

---

Assay: Efflux ratio of permeability in human Caco-2 cells
Assay type: ADME, cell-based
Measure Name: efflux ratio
Answer with a number only.

Field: example entries. Status: answers known.
Compound: COc1cncc2c1[C@]1(O)[C@@H](CN)C[C@@H](c3ccccc3)[C@]1(c1ccc(C#N)cc1)O2 (racemic)
Quantitative Readout: 58
//
Compound: COc1cncc2c1[C@]1(O)[C@@H](CNCC(F)F)[C@H](CO)[C@@H](c3ccccc3)[C@]1(c1ccc(C#N)cc1)O2 (racemic)
Quantitative Readout: 6.7

Consider now this further compound.
// fetch efflux ratio given entry COc1cncc2c1[C@]1(O)[C@@H](CN)[C@H](CO)[C@@H](c3ccccc3)[C@]1(c1ccc(Br)cc1)O2 (racemic)
61
